All values here come from ChEMBL document CHEMBL1201862.

Test system: RXF 393
Assay protocol: NCI tumour cell line growth inhibition, 48 h
Calls of active or inactive are those of the source. No stated cut-off is given here; in the data, active = GI50 up to about 1.1 µM and inactive = higher.
Readout label: GI50

Dear colleague, could you please provide GI50 for the compounds listed below?
1. CC1=C(/C=C/C2=CC(=C\C(=O)O)/CC(C3=C(C)CCCC3(C)C)C2)C(C)(C)CCC1 (stereo not drawn)
2. O=C(O)c1nc2ccccc2nc1NCc1ccc(F)cc1
3. CC(NNC(=O)c1cc[n+]([BH2-]C#N)cc1)c1ccccc1F (stereo not drawn)
4. C=C1C(=O)O[C@H]2C[C@@H]1C(=O)CC(C)CCCC(C)=CCC[C@@]2(C)O (stereo partly drawn)

## Output
["10.8 µM (inactive)", "> 100 µM (inactive)", "> 100 µM (inactive)", "> 25 µM (inactive)"]

Dear colleague, could you please provide GI50 for the compounds listed below?
1. OC1CN2Cc3cc4c(cc3[C@]13C=C[C@@H](O)CC23)OCO4 (stereo partly drawn)
2. O=c1[nH]c(=O)n(C2COC(CO)C2O)cc1F (stereo not drawn)
3. C=CCC(C(=O)OC)C1(C(=O)OC)c2[nH]c3ccccc3c2CCN1Cc1ccccc1 (stereo not drawn)

## Output
15.7 µM (inactive)
2.94 µM (inactive)
33 µM (inactive)

Dear colleague, could you please provide GI50 for the compounds listed below?
1. C=CC(C)CCC(C/C=C(\C)CCC=C(C)C)C(=C)CCCC(C)C (stereo not drawn)
2. CCCCCCCCC/C=C1/CC(CO)(COC(=O)C2CCCCC2)OC1=O (stereo not drawn)

## Output
1: > 100 µM (inactive); 2: > 100 µM (inactive)
